Target: T1, MPDZ_5, O75970
T1 sequence (O75970 695-796, limits assumed, looked up): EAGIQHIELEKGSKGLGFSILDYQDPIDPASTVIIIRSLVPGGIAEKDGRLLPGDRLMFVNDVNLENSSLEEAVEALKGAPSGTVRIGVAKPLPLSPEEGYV
Assay: holdup assay
Parameters: key: below the threshold = too weak to quantify, mostly under pKd 3.1 to 4
Settings: plain residues with an end cap or a label only (N-terminal biotin on a linker: ado-ado)
Reported property: pKd

[
  {
    "Binder": "VKRNSKETVV [MARCHF3, Q86UD3]",
    "Reported property": "pKd",
    "Recorded result": "below the threshold"
  },
  {
    "Binder": "QRPYRRGSEI [KCNJ18, B7U540]",
    "Reported property": "pKd",
    "Recorded result": "below the threshold"
  },
  {
    "Binder": "EIPAQSPTCV [FZD10, Q9ULW2]",
    "Reported property": "pKd",
    "Recorded result": "below the threshold"
  },
  {
    "Binder": "AEASVACSLC [PTGIR, P43119]",
    "Reported property": "pKd",
    "Recorded result": "below the threshold"
  },
  {
    "Binder": "AQRARSPSDV [GPR12, P47775]",
    "Reported property": "pKd",
    "Recorded result": "below the threshold"
  },
  {
    "Binder": "DRIQSCLSDA [SBF1, O95248]",
    "Reported property": "pKd",
    "Recorded result": "below the threshold"
  },
  {
    "Binder": "NVYGIESVKI [GRIA2, P42262]",
    "Reported property": "pKd",
    "Recorded result": "below the threshold"
  },
  {
    "Binder": "RDPPAEWTRV [PTPN18, Q99952]",
    "Reported property": "pKd",
    "Recorded result": "below the threshold"
  },
  {
    "Binder": "DFLSTFHIRI [CIB2, O75838]",
    "Reported property": "pKd",
    "Recorded result": "below the threshold"
  },
  {
    "Binder": "NTANRRTTPV [CACNG2, Q9Y698]",
    "Reported property": "pKd",
    "Recorded result": "below the threshold"
  },
  {
    "Binder": "LAHVKHKEQI [AQP3, Q92482]",
    "Reported property": "pKd",
    "Recorded result": "below the threshold"
  },
  {
    "Binder": "PSVGSKKTVL [REELD1, A0A1B0GV85]",
    "Reported property": "pKd",
    "Recorded result": "below the threshold"
  },
  {
    "Binder": "ELSATVTTDC [TRIP6, Q15654]",
    "Reported property": "pKd",
    "Recorded result": "below the threshold"
  },
  {
    "Binder": "MQHQRTHTRV [ZSCAN30, Q86W11]",
    "Reported property": "pKd",
    "Recorded result": "below the threshold"
  },
  {
    "Binder": "TRKRSGEAAV [PFKM, P08237]",
    "Reported property": "pKd",
    "Recorded result": "below the threshold"
  },
  {
    "Binder": "NISYRRESAI [KCNJ4, P48050]",
    "Reported property": "pKd",
    "Recorded result": "below the threshold"
  }
]

The reported measurements were obtained from paper PMC9482650.
